Target: Metabotropic glutamate receptor 3 (Homo sapiens)
Sequence (Q14832 whole entry): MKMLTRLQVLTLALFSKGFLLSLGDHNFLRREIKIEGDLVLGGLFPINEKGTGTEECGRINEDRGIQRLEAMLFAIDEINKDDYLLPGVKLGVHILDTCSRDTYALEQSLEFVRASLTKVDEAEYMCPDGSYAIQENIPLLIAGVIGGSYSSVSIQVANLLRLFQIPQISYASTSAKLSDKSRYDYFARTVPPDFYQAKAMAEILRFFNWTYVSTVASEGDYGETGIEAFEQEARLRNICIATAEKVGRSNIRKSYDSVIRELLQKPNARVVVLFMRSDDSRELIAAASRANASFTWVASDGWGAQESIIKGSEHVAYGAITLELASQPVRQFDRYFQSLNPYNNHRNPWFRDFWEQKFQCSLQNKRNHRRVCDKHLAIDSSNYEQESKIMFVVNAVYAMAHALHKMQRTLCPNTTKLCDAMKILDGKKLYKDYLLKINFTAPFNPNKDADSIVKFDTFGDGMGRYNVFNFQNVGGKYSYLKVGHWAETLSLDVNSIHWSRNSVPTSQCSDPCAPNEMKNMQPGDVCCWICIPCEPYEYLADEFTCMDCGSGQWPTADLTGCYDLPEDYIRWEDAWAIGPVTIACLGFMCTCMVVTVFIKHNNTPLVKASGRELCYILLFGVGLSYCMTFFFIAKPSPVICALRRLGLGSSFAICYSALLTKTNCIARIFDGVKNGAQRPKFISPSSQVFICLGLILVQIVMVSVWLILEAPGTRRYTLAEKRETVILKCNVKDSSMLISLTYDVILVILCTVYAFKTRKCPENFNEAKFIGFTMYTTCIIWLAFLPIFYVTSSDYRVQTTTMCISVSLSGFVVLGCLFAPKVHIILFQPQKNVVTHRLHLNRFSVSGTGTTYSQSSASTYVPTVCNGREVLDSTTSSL
Experiment: Agonist activity at human recombinant mGlu3 receptor expressed in AV12 cells assessed as inhibition of forskolin-stimulated cAMP production after 1 hr by fluorescence assay
Assay type: functional, cell-based
pEC50: −log10 of the molar value.
// F strictly below 7 in pEC50; T otherwise

> print(dat)
                              smiles.record  label
1  N[C@@]1(C(=O)O)CC[C@H]2[C@H](C(=O)O)[C@H]21      T
2  CC(C)c1nnc(S[C@@H]2C[C@@](N)(C(=O)O)[C@@H]3[C@@H](C(=O)O)[C@@H]32)[nH]1      F
3  N[C@@]1(C(=O)O)C[C@H](Sc2nnc(C(F)F)[nH]2)[C@H]2[C@H](C(=O)O)[C@H]21      T
4  N[C@@]1(C(=O)O)C[C@H](Sc2n[nH]c(C(F)(F)F)n2)[C@H]2[C@H](C(=O)O)[C@H]21      T

====

Biological target: Metabotropic glutamate receptor 1 (Homo sapiens, UniProt Q13255)
Sequence (Q13255 whole entry): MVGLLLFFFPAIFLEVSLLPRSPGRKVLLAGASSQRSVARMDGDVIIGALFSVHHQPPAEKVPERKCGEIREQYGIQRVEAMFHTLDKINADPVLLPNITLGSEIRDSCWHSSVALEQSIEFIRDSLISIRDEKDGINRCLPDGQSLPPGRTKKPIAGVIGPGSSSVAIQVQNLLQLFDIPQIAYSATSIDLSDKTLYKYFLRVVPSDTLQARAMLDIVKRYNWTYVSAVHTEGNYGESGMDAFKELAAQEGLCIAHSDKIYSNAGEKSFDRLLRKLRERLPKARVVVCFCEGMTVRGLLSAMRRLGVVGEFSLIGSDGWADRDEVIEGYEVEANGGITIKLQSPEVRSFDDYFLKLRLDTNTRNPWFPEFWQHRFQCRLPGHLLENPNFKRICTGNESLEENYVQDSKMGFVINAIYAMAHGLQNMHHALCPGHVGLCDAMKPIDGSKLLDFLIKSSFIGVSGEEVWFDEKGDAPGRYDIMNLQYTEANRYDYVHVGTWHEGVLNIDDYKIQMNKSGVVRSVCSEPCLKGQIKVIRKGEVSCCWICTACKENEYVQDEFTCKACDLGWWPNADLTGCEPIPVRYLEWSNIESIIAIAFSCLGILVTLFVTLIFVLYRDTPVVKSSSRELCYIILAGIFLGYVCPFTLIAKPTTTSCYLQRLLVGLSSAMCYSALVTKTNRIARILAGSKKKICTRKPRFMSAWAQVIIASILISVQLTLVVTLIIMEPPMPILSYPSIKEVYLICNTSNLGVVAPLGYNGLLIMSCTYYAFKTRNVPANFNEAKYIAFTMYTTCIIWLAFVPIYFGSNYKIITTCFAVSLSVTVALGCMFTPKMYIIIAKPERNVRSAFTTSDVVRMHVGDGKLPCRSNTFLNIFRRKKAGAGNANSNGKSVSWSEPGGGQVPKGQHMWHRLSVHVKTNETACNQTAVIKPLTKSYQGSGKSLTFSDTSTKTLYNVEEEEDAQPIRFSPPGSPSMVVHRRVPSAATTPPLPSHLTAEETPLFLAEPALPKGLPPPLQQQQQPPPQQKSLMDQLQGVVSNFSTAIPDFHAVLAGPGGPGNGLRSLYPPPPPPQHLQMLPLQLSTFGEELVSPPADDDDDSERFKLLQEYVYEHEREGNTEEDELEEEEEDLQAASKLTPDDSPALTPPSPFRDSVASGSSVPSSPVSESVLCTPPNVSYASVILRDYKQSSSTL
Assay: Antagonist activity at human recombinant mGlu1 receptor expressed in AV12 cells assessed as inhibition of glutamate-stimulated Ca2+ mobilization after 1 hr by FLIPR assay
OBSERVED_PROPERTY: IC50

> print(dat)
                              smiles.record  value.observed
1  N[C@@]1(C(=O)O)C[C@@H](Sc2nc[nH]n2)[C@H]2[C@H](C(=O)O)[C@H]21       > 12.5 µM

====

Assay: AUC (0 to 24 hrs) in Sprague-Dawley rat at 10 mg/kg, ip
Format: ADME, organism-based
Set-up: dose 10 mg/kg, time < 24 hr, route intraperitoneal
Conditions: in vivo
OBSERVED_PROPERTY: AUC(0-t) at 24 h (µM·h)

> print(dat)
                              smiles.record  unit.descriptor  value.observed
1  N[C@@]1(C(=O)O)C[C@@H](Sc2nc[nH]n2)[C@H]2[C@H](C(=O)O)[C@H]21             µM·h            43.1

====

Test: Half life in Sprague-Dawley rat at 1 mg/kg, ip
Type: ADME, organism-based
Conditions: in vivo
OBSERVED_PROPERTY: half-life (h)

> print(dat)
                              smiles.record  value.observed
1  N[C@@]1(C(=O)O)C[C@@H](Sc2nc[nH]n2)[C@H]2[C@H](C(=O)O)[C@H]21             1.2

====

Molecular target: Metabotropic glutamate receptor 2 (Homo sapiens)
Sequence (Q14416 whole entry): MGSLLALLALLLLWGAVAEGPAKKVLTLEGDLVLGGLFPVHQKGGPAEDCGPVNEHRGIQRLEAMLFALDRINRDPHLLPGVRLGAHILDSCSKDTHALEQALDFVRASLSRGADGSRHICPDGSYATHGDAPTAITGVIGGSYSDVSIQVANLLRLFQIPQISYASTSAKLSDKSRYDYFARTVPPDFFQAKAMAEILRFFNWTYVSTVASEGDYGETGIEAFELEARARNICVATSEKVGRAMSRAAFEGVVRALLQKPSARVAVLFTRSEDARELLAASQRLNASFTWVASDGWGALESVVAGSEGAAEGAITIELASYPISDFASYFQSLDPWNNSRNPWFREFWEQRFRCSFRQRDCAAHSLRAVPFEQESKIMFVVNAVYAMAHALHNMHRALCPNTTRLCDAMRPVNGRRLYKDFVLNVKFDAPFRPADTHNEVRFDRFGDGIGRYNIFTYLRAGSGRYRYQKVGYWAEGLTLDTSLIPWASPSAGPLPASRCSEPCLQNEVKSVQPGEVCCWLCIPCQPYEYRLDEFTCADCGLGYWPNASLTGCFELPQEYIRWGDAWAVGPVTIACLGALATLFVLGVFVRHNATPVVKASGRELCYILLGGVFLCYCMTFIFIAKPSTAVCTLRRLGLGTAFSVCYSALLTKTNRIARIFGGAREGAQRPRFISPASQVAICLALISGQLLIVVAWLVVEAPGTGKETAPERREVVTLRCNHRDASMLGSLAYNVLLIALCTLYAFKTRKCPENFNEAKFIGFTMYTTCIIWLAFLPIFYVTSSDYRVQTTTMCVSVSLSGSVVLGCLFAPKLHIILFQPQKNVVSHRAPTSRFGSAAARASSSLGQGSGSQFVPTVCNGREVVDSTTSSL
Assay: Agonist activity at human recombinant mGlu2 receptor expressed in AV12 cells assessed as inhibition of forskolin-stimulated cAMP production after 20 min by fluorescence assay
Quick list: EC50 per entry.
OBSERVED_PROPERTY: EC50 (nM)

> print(dat)
                               smiles.record  unit.descriptor  value.observed
 1  N[C@@]1(C(=O)O)C[C@@H](Sc2nc[nH]n2)[C@H]2[C@H](C(=O)O)[C@H]21               nM             5.6
 2  N[C@@]1(C(=O)O)C[C@H](Sc2nnc[nH]2)[C@H]2[C@H](C(=O)O)[C@H]21               nM            11.2
 3  CC(C)c1nc(S[C@H]2C[C@@](N)(C(=O)O)[C@@H]3[C@@H](C(=O)O)[C@@H]32)n[nH]1               nM              74
 4  N[C@@]1(C(=O)O)C[C@H](Sc2nnc(C(F)F)[nH]2)[C@H]2[C@H](C(=O)O)[C@H]21               nM            0.58
 5  Nc1nnc(S[C@@H]2C[C@@](N)(C(=O)O)[C@@H]3[C@@H](C(=O)O)[C@@H]32)[nH]1               nM             4.5
 6  Nc1nnc(S[C@H]2C[C@@](N)(C(=O)O)[C@@H]3[C@@H](C(=O)O)[C@@H]32)[nH]1               nM             6.4
 7  Cc1nnc(S[C@H]2C[C@@](N)(C(=O)O)[C@@H]3[C@@H](C(=O)O)[C@@H]32)[nH]1               nM            44.3
 8  N[C@@]1(C(=O)O)CC[C@H]2[C@H](C(=O)O)[C@H]21               nM               7
 9  Cc1nnc(S[C@@H]2C[C@@](N)(C(=O)O)[C@@H]3[C@@H](C(=O)O)[C@@H]32)[nH]1               nM            10.4
10  CC(C)c1nnc(S[C@@H]2C[C@@](N)(C(=O)O)[C@@H]3[C@@H](C(=O)O)[C@@H]32)[nH]1               nM            16.5
11  N[C@@]1(C(=O)O)C[C@@H](Sc2nnc(C(F)F)[nH]2)[C@H]2[C@H](C(=O)O)[C@H]21               nM            11.8
12  N[C@@]1(C(=O)O)C[C@@H](Sc2c[nH]nn2)[C@H]2[C@H](C(=O)O)[C@H]21               nM            12.4
13  N[C@@]1(C(=O)O)C[C@H](Sc2c[nH]nn2)[C@H]2[C@H](C(=O)O)[C@H]21               nM             5.2

====

Experiment: Tmax in Sprague-Dawley rat at 10 mg/kg, ip
Type: ADME, organism-based
Settings: in vivo
OBSERVED_PROPERTY: Tmax (min)

> print(dat)
                              smiles.record  value.observed
1  N[C@@]1(C(=O)O)C[C@@H](Sc2nc[nH]n2)[C@H]2[C@H](C(=O)O)[C@H]21              30

====

Assay: Plasma concentration in Sprague-Dawley rat at 10 mg/kg, ip after 1 hr
Assay type: ADME, organism-based
OBSERVED_PROPERTY: concentration at 1 h (µM)

> print(dat)
                              smiles.record  value.observed
1  N[C@@]1(C(=O)O)C[C@@H](Sc2nc[nH]n2)[C@H]2[C@H](C(=O)O)[C@H]21            23.6

====

Assay: Drug level in Sprague-Dawley rat cerebrospinal fluid at 1 mg/kg, ip after 1 hr
Assay type: ADME, organism-based
Conditions: read-out: Drug uptake
OBSERVED_PROPERTY: concentration at 1 h (nM)

> print(dat)
                              smiles.record     observed.property  unit.descriptor  value.observed
1  N[C@@]1(C(=O)O)C[C@@H](Sc2nc[nH]n2)[C@H]2[C@H](C(=O)O)[C@H]21  concentration at 1 h               nM            39.9

====

Assay: Half life in Sprague-Dawley rat at 3 mg/kg, ip
Type: ADME, organism-based
Conditions: in vivo
OBSERVED_PROPERTY: half-life (h)

> print(dat)
                              smiles.record  value.observed
1  N[C@@]1(C(=O)O)C[C@@H](Sc2nc[nH]n2)[C@H]2[C@H](C(=O)O)[C@H]21             3.2

====

Target: Metabotropic glutamate receptor 2 (Homo sapiens)
Assay: Agonist activity at human recombinant mGlu2 receptor expressed in AV12 cells assessed as stimulation of Ca2+ mobilization after 1 hr by FLIPR assay
Format: functional, cell-based
pEC50: −log10 of the molar value.
OBSERVED_PROPERTY: pEC50

> print(dat)
                               smiles.record  readout.qualifier  value.observed
 1  N[C@@]1(C(=O)O)CC[C@H]2[C@H](C(=O)O)[C@H]21                  =            7.46
 2  N[C@@]1(C(=O)O)C[C@H](Sc2c[nH]nn2)[C@H]2[C@H](C(=O)O)[C@H]21                  =            7.72
 3  N[C@@]1(C(=O)O)C[C@H](Sc2nnc(C(F)F)[nH]2)[C@H]2[C@H](C(=O)O)[C@H]21                  =            8.20
 4  N[C@@]1(C(=O)O)C[C@@H](Sc2nnc(C(F)F)[nH]2)[C@H]2[C@H](C(=O)O)[C@H]21                  =            7.27
 5  Cc1nnc(S[C@@H]2C[C@@](N)(C(=O)O)[C@@H]3[C@@H](C(=O)O)[C@@H]32)[nH]1                  =            7.40
 6  Cc1nnc(S[C@H]2C[C@@](N)(C(=O)O)[C@@H]3[C@@H](C(=O)O)[C@@H]32)[nH]1                  =            6.84
 7  Nc1nnc(S[C@@H]2C[C@@](N)(C(=O)O)[C@@H]3[C@@H](C(=O)O)[C@@H]32)[nH]1                  =            7.89
 8  Nc1nnc(S[C@H]2C[C@@](N)(C(=O)O)[C@@H]3[C@@H](C(=O)O)[C@@H]32)[nH]1                  =            7.70
 9  N[C@@]1(C(=O)O)C[C@@H](Sc2ccccc2)[C@H]2[C@H](C(=O)O)[C@H]21                  <            4.90
10  CC(C)c1nnc(S[C@@H]2C[C@@](N)(C(=O)O)[C@@H]3[C@@H](C(=O)O)[C@@H]32)[nH]1                  =            7.06
11  N[C@@]1(C(=O)O)C[C@@H](Sc2nc[nH]n2)[C@H]2[C@H](C(=O)O)[C@H]21                  =            7.68
12  N[C@@]1(C(=O)O)C[C@H](Sc2ccccc2)[C@H]2[C@H](C(=O)O)[C@H]21                  <            4.60
13  CC(C)c1nc(S[C@H]2C[C@@](N)(C(=O)O)[C@@H]3[C@@H](C(=O)O)[C@@H]32)n[nH]1                  =            6.62
